Listed next: entries and their corresponding inhibition of growth at 10 µM.
Tested on: 786-0
MEASUREMENT_NOTES: Growth inhibition of human 786-0 cells at 10 uM after 48 hrs by SRB assay relative to control
Format: functional
COND: 786-0, 48 h, read-out: GI

COMPOUND_SMILES: COc1ccc(C(=O)N2c3ccccc3Sc3ccccc32)c(C(F)(F)F)c1
inhibition of growth at 10 µM: 61%
--
COMPOUND_SMILES: O=C(c1ccc(Cl)cc1Cl)N1c2ccccc2Sc2ccccc21
inhibition of growth at 10 µM: 33%
--
COMPOUND_SMILES: O=C(c1ccc2c(c1)Sc1ccccc1N2)c1c[nH]c2ccccc12
inhibition of growth at 10 µM: 50%
--
COMPOUND_SMILES: COc1ccc(C(=O)N2c3ccccc3Sc3ccccc32)c(OC)c1
inhibition of growth at 10 µM: 71%
--
COMPOUND_SMILES: COc1ccc(C(=O)N2c3ccccc3Sc3ccccc32)c(F)c1
inhibition of growth at 10 µM: 77%
--
COMPOUND_SMILES: O=C(c1ccc(F)c(Cl)c1)N1c2ccccc2Sc2ccccc21
inhibition of growth at 10 µM: 20%
--
COMPOUND_SMILES: COc1ccc(C(=O)c2ccc3c(c2)Sc2cc(C(=O)c4ccc(OC)c(F)c4)ccc2N3C)cc1F
inhibition of growth at 10 µM: 23%
--
COMPOUND_SMILES: O=C(c1ccc(F)cc1F)N1c2ccccc2Sc2ccccc21
inhibition of growth at 10 µM: 26%
--
COMPOUND_SMILES: COc1ccc(C(=O)c2ccc3c(c2)Sc2ccccc2N3C)cc1F
inhibition of growth at 10 µM: 16%
--
COMPOUND_SMILES: O/N=C(/c1ccc2c(c1)Sc1ccccc1N2)c1c[nH]c2ccccc12
inhibition of growth at 10 µM: 38%
--
COMPOUND_SMILES: COc1ccc(C(=O)N2c3ccccc3Sc3ccccc32)cc1F
inhibition of growth at 10 µM: 64%

---

Test system: ACHN
MEASUREMENT_NOTES: Growth inhibition of human ACHN cells at 10 uM after 48 hrs by SRB assay relative to control
Format: functional
COND: read-out: GI

COMPOUND_SMILES: COc1ccc(C(=O)c2ccc3c(c2)Sc2ccccc2N3C)cc1F
UNIT_SPEC: %
inhibition of growth at 10 µM: 0
--
COMPOUND_SMILES: COc1ccc(C(=O)N2c3ccccc3Sc3ccccc32)c(C(F)(F)F)c1
UNIT_SPEC: %
inhibition of growth at 10 µM: 68
--
COMPOUND_SMILES: O/N=C(/c1ccc2c(c1)Sc1ccccc1N2)c1c[nH]c2ccccc12
UNIT_SPEC: %
inhibition of growth at 10 µM: 17
--
COMPOUND_SMILES: COc1ccc(C(=O)N2c3ccccc3Sc3ccccc32)c(F)c1
UNIT_SPEC: %
inhibition of growth at 10 µM: 52
--
COMPOUND_SMILES: COc1ccc(C(=O)N2c3ccccc3Sc3ccccc32)cc1F
UNIT_SPEC: %
inhibition of growth at 10 µM: 50
--
COMPOUND_SMILES: O=C(c1ccc(Cl)cc1Cl)N1c2ccccc2Sc2ccccc21
UNIT_SPEC: %
inhibition of growth at 10 µM: 39

---

Measured inhibition of growth at 10 µM, listed per entry.
Tested on: A549
MEASUREMENT_NOTES: Growth inhibition of human A549 cells at 10 uM after 48 hrs by SRB assay relative to control
Assay type: functional
COND: A549, 48 h, read-out: GI

COMPOUND_SMILES: O=C(c1ccc(F)cc1F)N1c2ccccc2Sc2ccccc21
SYSTEM_NAME: A549
inhibition of growth at 10 µM [%]: 48
--
COMPOUND_SMILES: COc1ccc(C(=O)N2c3ccccc3Sc3ccccc32)c(C(F)(F)F)c1
SYSTEM_NAME: A549
inhibition of growth at 10 µM [%]: 75
--
COMPOUND_SMILES: COc1ccc(C(=O)N2c3ccccc3Sc3ccccc32)cc1F
SYSTEM_NAME: A549
inhibition of growth at 10 µM [%]: 83
--
COMPOUND_SMILES: COc1ccc(C(=O)c2ccc3c(c2)Sc2ccccc2N3C)cc1F
SYSTEM_NAME: A549
inhibition of growth at 10 µM [%]: 44
--
COMPOUND_SMILES: O/N=C(/c1ccc2c(c1)Sc1ccccc1N2)c1c[nH]c2ccccc12
SYSTEM_NAME: A549
inhibition of growth at 10 µM [%]: 48
--
COMPOUND_SMILES: O=C(c1ccc(Cl)cc1Cl)N1c2ccccc2Sc2ccccc21
SYSTEM_NAME: A549
inhibition of growth at 10 µM [%]: 46
--
COMPOUND_SMILES: COc1ccc(C(=O)N2c3ccccc3Sc3ccccc32)c(F)c1
SYSTEM_NAME: A549
inhibition of growth at 10 µM [%]: 73
--
COMPOUND_SMILES: COc1ccc(C(=O)N2c3ccccc3Sc3ccccc32)c(OC)c1
SYSTEM_NAME: A549
inhibition of growth at 10 µM [%]: 69
--
COMPOUND_SMILES: COc1ccc(C(=O)c2ccc3c(c2)Sc2cc(C(=O)c4ccc(OC)c(F)c4)ccc2N3C)cc1F
SYSTEM_NAME: A549
inhibition of growth at 10 µM [%]: 15
--
COMPOUND_SMILES: O=C(c1ccc2c(c1)Sc1ccccc1N2)c1c[nH]c2ccccc12
SYSTEM_NAME: A549
inhibition of growth at 10 µM [%]: 77
--
COMPOUND_SMILES: O=C(c1ccc(F)c(Cl)c1)N1c2ccccc2Sc2ccccc21
SYSTEM_NAME: A549
inhibition of growth at 10 µM [%]: 34

---

System: HT-29
MEASUREMENT_NOTES: Growth inhibition of human HT-29 cells after 48 hrs by SRB assay
Format: functional
COND: HT-29, 48 h

COMPOUND_SMILES: O=C(c1ccc2c(c1)Sc1ccccc1N2)c1c[nH]c2ccccc12
GI50 [nM]: 358

COMPOUND_SMILES: COc1ccc(C(=O)N2c3ccccc3Sc3ccccc32)c(OC)c1
GI50 [nM]: 385

COMPOUND_SMILES: COc1ccc(C(=O)N2c3ccccc3Sc3ccccc32)c(C(F)(F)F)c1
GI50 [nM]: 362

COMPOUND_SMILES: COc1ccc(C(=O)N2c3ccccc3Sc3ccccc32)c(F)c1
GI50 [nM]: 380

COMPOUND_SMILES: COc1ccc(C(=O)N2c3ccccc3Sc3ccccc32)cc1F
GI50 [nM]: 283

---

Organism: Ovis aries
MEASUREMENT_NOTES: Inhibition of sheep brain tubulin polymerization at 100 uM by DAPI staining-based fluorimetric method
RECORDED_ENDPOINT: inhibition (%)

COMPOUND_SMILES: S=C(c1ccc2c(c1)Sc1ccccc1N2)c1c[nH]c2ccccc12
OBSERVED_RESULT: 10
//
COMPOUND_SMILES: O=C(c1ccc(OC(F)(F)F)c(F)c1)N1c2ccccc2Sc2ccccc21
OBSERVED_RESULT: 48
//
COMPOUND_SMILES: O=C(c1ccc2c(c1)Sc1ccccc1N2)c1c[nH]c2ccccc12
OBSERVED_RESULT: 66
//
COMPOUND_SMILES: COc1ccc(C(=O)N2c3ccccc3Sc3ccccc32)c(OC)c1
OBSERVED_RESULT: 53
//
COMPOUND_SMILES: COc1ccc(C(=O)N2c3ccccc3Sc3ccccc32)c(F)c1
OBSERVED_RESULT: 75
//
COMPOUND_SMILES: COc1ccc(C(=O)N2c3ccccc3Sc3ccccc32)cc1N
OBSERVED_RESULT: 95
//
COMPOUND_SMILES: O=C(c1ccc(F)cc1F)N1c2ccccc2Sc2ccccc21
OBSERVED_RESULT: 25
//
COMPOUND_SMILES: COc1ccc(C(=S)N2c3ccccc3Sc3ccccc32)cc1F
OBSERVED_RESULT: 14
//
COMPOUND_SMILES: COc1ccc(C(=O)c2cc(OC)c(OC)c(OC)c2)cc1O
OBSERVED_RESULT: 99
//
COMPOUND_SMILES: O/N=C(/c1ccc2c(c1)Sc1ccccc1N2)c1c[nH]c2ccccc12
OBSERVED_RESULT: 15
//
COMPOUND_SMILES: Cc1cc(C(=O)N2c3ccccc3Sc3ccccc32)ccc1Br
OBSERVED_RESULT: 43

---

MEASUREMENT_NOTES: Growth inhibition of human RXF393 cells at 10 uM after 48 hrs by SRB assay relative to control
Type: functional
COND: RXF 393, 48 h, read-out: GI
Use 40% as the dividing line for inhibition of growth at 10 µM, with the line itself on the Met side and lower values as Not met.

COMPOUND_SMILES: O=C(c1ccc2c(c1)Sc1ccccc1N2)c1c[nH]c2ccccc12
CLASS_ASSIGNMENT: Met
//
COMPOUND_SMILES: COc1ccc(C(=O)c2ccc3c(c2)Sc2ccccc2N3C)cc1F
CLASS_ASSIGNMENT: Not met
//
COMPOUND_SMILES: O=C(c1ccc(F)c(Cl)c1)N1c2ccccc2Sc2ccccc21
CLASS_ASSIGNMENT: Not met
//
COMPOUND_SMILES: COc1ccc(C(=O)N2c3ccccc3Sc3ccccc32)c(C(F)(F)F)c1
CLASS_ASSIGNMENT: Met
//
COMPOUND_SMILES: COc1ccc(C(=O)N2c3ccccc3Sc3ccccc32)c(F)c1
CLASS_ASSIGNMENT: Met
//
COMPOUND_SMILES: O/N=C(/c1ccc2c(c1)Sc1ccccc1N2)c1c[nH]c2ccccc12
CLASS_ASSIGNMENT: Not met
//
COMPOUND_SMILES: COc1ccc(C(=O)N2c3ccccc3Sc3ccccc32)cc1F
CLASS_ASSIGNMENT: Met
//
COMPOUND_SMILES: COc1ccc(C(=O)c2ccc3c(c2)Sc2cc(C(=O)c4ccc(OC)c(F)c4)ccc2N3C)cc1F
CLASS_ASSIGNMENT: Not met
//
COMPOUND_SMILES: O=C(c1ccc(F)cc1F)N1c2ccccc2Sc2ccccc21
CLASS_ASSIGNMENT: Not met
//
COMPOUND_SMILES: O=C(c1ccc(Cl)cc1Cl)N1c2ccccc2Sc2ccccc21
CLASS_ASSIGNMENT: Not met
//
COMPOUND_SMILES: COc1ccc(C(=O)N2c3ccccc3Sc3ccccc32)c(OC)c1
CLASS_ASSIGNMENT: Met
